Target: Cathepsin D (Homo sapiens, UniProt P07339)
Sequence (P07339 65-162 limits assumed): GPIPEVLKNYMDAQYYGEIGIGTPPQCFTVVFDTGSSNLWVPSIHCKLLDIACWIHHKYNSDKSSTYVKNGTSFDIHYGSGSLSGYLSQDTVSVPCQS
Sequence (P07339 169-412 limits assumed): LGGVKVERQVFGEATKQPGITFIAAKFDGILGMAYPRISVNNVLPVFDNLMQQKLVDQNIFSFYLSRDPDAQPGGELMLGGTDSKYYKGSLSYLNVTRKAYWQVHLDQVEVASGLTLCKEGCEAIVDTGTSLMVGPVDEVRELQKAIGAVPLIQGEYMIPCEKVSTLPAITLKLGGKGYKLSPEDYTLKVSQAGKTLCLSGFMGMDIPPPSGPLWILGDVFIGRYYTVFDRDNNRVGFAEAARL
READOUT LABEL: pIC50
Give bare numbers, as −log10 of the molar value.

Record COc1cc(Cl)cnc1C(=O)Nc1ccc(F)c([C@@]2(CF)N=C(N)O[C@@H]3C[C@@H]32)c1 [US9611261, Example 297] has Cathepsin D (Homo sapiens, UniProt P07339) pIC50 equal to 3.08
